System: Wolbachia pipientis
assay method text: Anti-Wolbachia Cell-Based Screen
Type: functional
Set-up: scale not given: in the data most compounds retested in dose-response had high values
condition notes: 5 µM
Hit rate of the full screen: of about 48,000 compounds, about 13,000 (27%) showed an effect of 50% or more. The list shows a part of the results.
quantity: Percent Effect (%)
Answers are plain numbers, in %.

molecule=Cc1cc(NCCc2nc(C)cs2)nc(-c2cccnc2)n1 quantity="Percent Effect" meas_value=101.8
molecule="CCCc1nc(CN2CCCCC2Cn2cncn2)cs1 (configuration not stated)" quantity="Percent Effect" meas_value=92.11
molecule="O=C(NCC1Cn2nnc(-c3ccncc3)c2CO1)c1ccsc1.O=C(O)C(F)(F)F (configuration not stated)" quantity="Percent Effect" meas_value=-1.201
molecule=O=C(c1ccc(-c2nc[nH]n2)cc1)N1CC[C@H](CO)[C@@H](O)C1 quantity="Percent Effect" meas_value=11.14
molecule=Cn1cccc1C(=O)NC[C@H]1C[C@@H]2CN(C(=O)c3ccco3)C[C@@H]2O1 quantity="Percent Effect" meas_value=102.1
molecule=Cc1cc(N(C)Cc2snnc2C)nc(-c2cccnc2)n1 quantity="Percent Effect" meas_value=5.151
molecule=CN(C)C[C@H]1C[C@@H]2CN(C(=O)c3ccco3)C[C@@H]2O1 quantity="Percent Effect" meas_value=-6.391
molecule=FC(F)(F)c1cc(NCCCn2cccn2)nc(-c2cccnc2)n1 quantity="Percent Effect" meas_value=19.81

Required: Percent Effect, one value per molecule below.
1. Cc1nc(CN2C[C@@H](NS(=O)(=O)N(C)C)[C@H](C(C)C)C2)cs1
2. Cc1ccc(OCC(O)CN(C)CC(=O)Nc2cc(C)on2)c(C)c1 (configuration not stated)

[-0.9733, 9.432]

Required: Percent Effect, one value per molecule below.
1. CC(C)n1c(C(=O)N2CCCC2)nc2c1CCN(c1ncccn1)C2
2. Cc1n[nH]c(C)c1CCN(C)C(=O)C(c1cccnc1)N1CCOCC1 (configuration not stated)

[-6.562, 1.239]

Required: Percent Effect, one value per molecule below.
1. O=C1C=CC=N/C1=C(/O)NCCNS(=O)(=O)N1CCCCCC1
2. CC(C)c1nc(CN2CCCCC2Cn2cncn2)cs1 (configuration not stated)

1: -2.703; 2: 82.22

Required: Percent Effect, one value per molecule below.
1. Cc1cccc(C(=O)N2C[C@@H]3[C@H](CC(=O)N4CCCC4)[C@@H]3C2)n1
2. O=C(C[C@@H]1COC[C@H]2CN(C(=O)c3ccccn3)C[C@@H]12)N1CCCC1.O=C(O)C(F)(F)F
3. O=C(NC[C@@H]1C[C@@H]2CN(C(=O)CO)C[C@H]2O1)c1ccsc1
4. O=C(NC[C@H]1C[C@@H]2CN(C(=O)c3ccco3)C[C@@H]2O1)c1ccsc1
5. O=c1[nH]c2nc(NC3CC3)ncc2c(=O)n1-c1ccc(F)cc1
6. Cc1ccc(-c2ccnc(N3CCC4(CCO4)CC3)n2)c(C)n1
7. CN(C)C(=O)Cc1nc(CN2CCCCC2Cn2cncn2)cs1 (configuration not stated)

-9.844
106.7
119.3
124.8
8.247
1.011
-10.91
